Listed here: items and their measured TGFβ inhibition by HEK-Blue cells (IC50: nM), TGFb1.
molecular target: human mature TGFβ1 (Homo sapiens, UniProt P01137); assay: cell-based or functional assay
Sequence (P01137 279-390): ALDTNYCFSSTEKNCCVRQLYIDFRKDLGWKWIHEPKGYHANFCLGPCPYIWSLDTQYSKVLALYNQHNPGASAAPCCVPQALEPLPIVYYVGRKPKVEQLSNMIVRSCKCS

{"columns": ["BINDER", "OBSERVED MEASUREMENT"],
 "data": [
  ["humanized 4A11 variant 7 (antibody, V domains shown, rbt4A11 CDRs (Kabat and Chothia) and rabbit Vernier residues (VH positions 2, 24, 37, 48, 49, 67, 71, 78, 91, 105) grafted on human germline IGHV4-59*06; has S19, S79, K81 (Kabat numbering); rbt4A11 CDRs and rabbit Vernier residues (VL positions 2, 4, 36, 43, 58) grafted on human germline IGKV3-20*01; human IgG1; also called h4A11.v7; v7; source: Expi293F, transient, purified (Protein A, SEC)) VH: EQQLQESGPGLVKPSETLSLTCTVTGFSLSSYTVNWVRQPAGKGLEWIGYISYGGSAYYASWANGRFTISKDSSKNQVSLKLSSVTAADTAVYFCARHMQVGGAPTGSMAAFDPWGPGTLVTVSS VL: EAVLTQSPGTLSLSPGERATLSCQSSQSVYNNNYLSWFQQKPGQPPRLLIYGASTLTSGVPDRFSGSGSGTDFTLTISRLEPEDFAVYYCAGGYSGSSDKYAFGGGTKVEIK", "> 667 nM"]
]}

// next item, TGFβ inhibition by HEK-Blue cells (IC50: nM), TGFb1 requested
I'd like to know its TGFβ inhibition by HEK-Blue cells (IC50: nM), TGFb1. The binder in question is humanized 4A11 variant 6 (antibody, V domains shown, as the VH of m7 (h4A11.v2): rbt4A11 CDRs and rabbit Vernier residues grafted on human germline IGHV3-48*01; rbt4A11 CDRs and rabbit Vernier residues (VL positions 2, 4, 36, 43, 58) grafted on human germline IGKV2-24*01; human IgG1; also called h4A11.v6; v6; source: Expi293F, transient, purified (Protein A, SEC)) VH: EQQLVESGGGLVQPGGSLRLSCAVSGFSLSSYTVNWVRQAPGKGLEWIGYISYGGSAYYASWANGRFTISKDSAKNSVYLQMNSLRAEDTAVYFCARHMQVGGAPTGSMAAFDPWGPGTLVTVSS VL: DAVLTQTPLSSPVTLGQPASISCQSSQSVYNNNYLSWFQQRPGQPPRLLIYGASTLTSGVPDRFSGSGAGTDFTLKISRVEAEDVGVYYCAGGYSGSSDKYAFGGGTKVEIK
> 667 nM

// data source = paper PMC8595303
